- STUDY SYSTEM: human GPR40 (Homo sapiens (Human))
- Sequence (O14842 whole entry): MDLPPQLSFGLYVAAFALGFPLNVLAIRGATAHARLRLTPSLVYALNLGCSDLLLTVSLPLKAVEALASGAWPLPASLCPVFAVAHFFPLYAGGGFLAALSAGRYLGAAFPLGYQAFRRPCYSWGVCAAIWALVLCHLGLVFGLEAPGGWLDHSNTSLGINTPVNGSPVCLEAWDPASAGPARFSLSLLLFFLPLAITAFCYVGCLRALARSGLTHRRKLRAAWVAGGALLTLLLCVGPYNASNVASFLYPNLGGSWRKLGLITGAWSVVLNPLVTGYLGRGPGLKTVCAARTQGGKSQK
- MEASUREMENT DESCRIPTION: GPR40 Calcium Flux Assay
- ASSAY SETUP: transfected HEK293 cells stably expressing human GPR40; Ca2+ mobilization; mean data; read-out: hGPR40 Ca^2+ Assay EC50
- Method: Compounds were tested in a calcium flux assay using transfected HEK293 cells stably expressing either human GPR40 or rat GPR40. […] The cell plate and a plate of diluted compounds of Formula (I) were loaded into a fluorescent plate reader that added compounds onto the cells while measuring the fluorescence intensity of each well. The plate reader recorded fluorescence intensity at 1 second intervals for 8 min and provided the data for analysis in an Excel format. […]
// NB: equality with 0.02 µM counts as NOT MET; only EC50 strictly below is MET

COMPOUND	CLASS LABEL
CC#C[C@@H](CC(=O)O)c1ccc(OCc2ccc3scc(-c4c(C)cccc4OCCOC)c3c2)cc1	MET
CC#C[C@@H](CC(=O)O)c1ccc(COc2ccc3scc(-c4ccc(OCCCS(C)(=O)=O)cc4C)c3c2)cc1	MET
CC#C[C@@H](CC(=O)O)c1ccc(OCc2ccc3scc(-c4ccc(C5CCNCC5)cc4C)c3c2)cc1	MET
Cc1cc(OC2CCOCC2)ccc1-c1csc2ccc(COc3ccc([C@]4(CC(=O)O)C[C@@H](O)C4)cc3)cc12	MET
CC#C[C@H](CC(=O)O)c1ccc(OCc2ccc3scc(-c4ccc(OCCOC)cc4C)c3c2)nc1	NOT MET
CCOCCOc1ccc(-c2csc3ccc(COc4ccc(C5(CC(=O)O)CC(=O)C5)cc4)cc23)c(C)c1	NOT MET
CC#C[C@@H](CC(=O)O)c1ccc(OCc2ccc3scc(-c4cc(Cl)ncc4C)c3c2)nc1	MET
CC#CC(CC(=O)O)c1ccc(OCc2ccc3scc(-c4ccccc4C)c3c2)cc1 (stereo not shown)	MET
Cc1cc(N2CC3(CCS3(=O)=O)C2)ccc1-c1csc2ccc(COc3ccc(C4(CC(=O)O)CC(=O)C4)cc3)cc12	MET
CC#C[C@@H](CC(=O)O)c1ccc(OCc2ccc3scc(-c4nc(OC)ccc4C)c3c2)cc1	MET
CC#C[C@@H](CC(=O)O)c1ccc(OCc2ccc3scc(-c4cc(OCCOC)ccc4C)c3c2)nc1	MET
CC#C[C@@H](CC(=O)O)c1ccc(OCc2ccc3scc(-c4cc(NS(C)(=O)=O)ccc4C)c3c2)cc1	NOT MET
Cc1cc(C2=CCS(=O)(=O)CC2)ccc1-c1csc2ccc(COc3ccc(C4(CC(=O)O)CC(=O)C4)cc3)cc12	MET
CC#C[C@@H](CC(=O)O)c1ccc(OCc2ccc3scc(-c4ccccc4C)c3c2)cc1	MET
CC#C[C@@H](CC(=O)O)c1ccc(OCc2ccc3scc(-c4ncc(OC)cc4C)c3c2)cc1	NOT MET
CC#C[C@@H](CC(=O)O)c1ccc(OCc2ccc3scc(-c4ccc(OCCOC)nc4C)c3c2)cc1	MET
CC#C[C@@H](CC(=O)O)c1ccc(OCc2ccc3scc(-c4ccc(OCCC5(O)CC5)cc4C)c3c2)cc1	MET
CC#C[C@@H](CC(=O)O)c1ccc(OCc2ccc3scc(-c4ccc(C(=O)N5CCS(=O)(=O)CC5)cc4C)c3c2)cc1	NOT MET
CC#C[C@@H](CC(=O)O)c1ccc(OCc2ccc3scc(-c4cc(OCCOC)cnc4C)c3c2)nc1	MET
CC#C[C@@H](CC(=O)O)c1ccc(OCc2ccc3scc(-c4ccccc4OC)c3c2)cc1	NOT MET
CC#C[C@@H](CC(=O)O)c1ccc(OCc2ccc3scc(-c4ccccc4Cl)c3c2)cc1	MET
CC#C[C@@H](CC(=O)O)c1ccc(OCc2ccc3scc(-c4cccnc4C)c3c2)cc1	MET
CC#C[C@@H](CC(=O)O)c1ccc(OCc2ccc3scc(-c4ccncc4OC)c3c2)cc1	MET
CC#C[C@@H](CC(=O)O)c1ccc(OCc2ccc3scc(-c4ccc(OCC5(O)CCS(=O)(=O)CC5)cc4C)c3c2)cc1	MET
CC#C[C@@H](CC(=O)O)c1ccc(OCc2ccc3scc(-c4cnc(OC)cc4C)c3c2)cc1	NOT MET
CC#C[C@@H](CC(=O)O)c1ccc(OCc2ccc3scc(-c4ccc(OC5CCOCC5)cc4C)c3c2)cc1	MET
CC#CC(CC(=O)O)c1ccc(OCc2ccc3scc(-c4ccc(OCC5CCS(=O)(=O)CC5)cc4C)c3c2)nc1 (stereo not shown)	MET
CC#C[C@@H](CC(=O)O)c1ccc(COc2ccc3scc(-c4ccc(OCC5(C)COC5)cc4C)c3c2)cc1	NOT MET
CC#C[C@@H](CC(=O)O)c1ccc(OCc2ccc3scc(-c4cc(S(C)(=O)=O)ccc4C)c3c2)cc1	NOT MET

Just for reference, patent US10131648B2 is where these values come from.
